Reported Ki values follow for various compounds
target: human PDE2A1 (Homo sapiens (Human))
Sequence (O00408 other isoform, or with tags, fused parts or gaps): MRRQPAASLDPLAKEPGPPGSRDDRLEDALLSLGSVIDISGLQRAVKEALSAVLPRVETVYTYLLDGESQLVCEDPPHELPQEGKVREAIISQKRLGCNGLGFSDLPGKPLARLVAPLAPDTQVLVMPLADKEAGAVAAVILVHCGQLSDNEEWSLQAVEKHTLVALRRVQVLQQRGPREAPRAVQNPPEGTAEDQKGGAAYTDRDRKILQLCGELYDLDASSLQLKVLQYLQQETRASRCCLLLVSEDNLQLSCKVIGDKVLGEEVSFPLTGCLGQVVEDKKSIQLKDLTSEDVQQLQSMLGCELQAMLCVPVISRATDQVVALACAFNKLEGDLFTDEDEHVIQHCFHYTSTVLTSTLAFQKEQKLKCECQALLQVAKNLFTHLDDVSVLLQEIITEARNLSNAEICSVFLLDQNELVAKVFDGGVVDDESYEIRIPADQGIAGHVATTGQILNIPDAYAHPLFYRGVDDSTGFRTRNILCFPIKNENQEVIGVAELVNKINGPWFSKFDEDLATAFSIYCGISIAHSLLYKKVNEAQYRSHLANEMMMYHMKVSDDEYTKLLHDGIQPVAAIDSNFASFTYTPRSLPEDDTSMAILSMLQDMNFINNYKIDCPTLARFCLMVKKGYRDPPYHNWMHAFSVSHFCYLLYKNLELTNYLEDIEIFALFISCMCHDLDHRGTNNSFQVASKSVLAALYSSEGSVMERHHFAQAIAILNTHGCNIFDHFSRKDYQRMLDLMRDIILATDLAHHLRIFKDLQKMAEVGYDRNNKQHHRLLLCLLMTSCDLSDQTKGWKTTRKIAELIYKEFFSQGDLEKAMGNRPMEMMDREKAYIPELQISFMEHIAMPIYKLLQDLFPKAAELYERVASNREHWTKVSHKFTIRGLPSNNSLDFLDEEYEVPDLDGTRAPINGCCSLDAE

Compound	Ki [nM]
Cc1nn2c([C@@H](C)c3ccc(C(F)(F)F)cc3)nc(CO)c2c(=O)[nH]1 (single isomer, unassigned)	1.2
Cc1nc2c(C(C)c3cccc(C(F)(F)F)c3F)nn(CCO)c2c(=O)[nH]1 (single isomer, unassigned) [Example 10]	206
Cc1nn2c(C(C)c3ccc(C(F)(F)F)cc3F)nc(CO)c2c(=O)[nH]1 (single isomer, unassigned)	0.8
Cc1nc2c([C@@H](C)c3ccc(C(F)(F)F)cc3)nn([C@@H](C)CO)c2c(=O)[nH]1 (single isomer, unassigned)	142
